# Test system: Mtb IZAK (multidrug-resistant clinical isolate)
# test-name: microbe, parasite or virus in culture
# Type: cell-based, Mycobacterium tuberculosis
# test-parameters: Mycobacterium tuberculosis, read-out: Mtb IZAK MIC
quantity-name: MIC (µg/mL)
Respond numerically; units are µg/mL and should not be typed.

In [3]: df
Out[3]:
                     line_notation  data_value
0  NC(=O)c1nccnc1NC(=O)c1ccc(F)cc1         100

## Task Missing value: MIC, Mtb IZAK (multidrug-resistant clinical isolate), entry `Cc1ccc(C(=O)Nc2nccnc2C(N)=O)cc1` . Fill in?
## Result 12.5

## Task Missing value: MIC, Mtb IZAK (multidrug-resistant clinical isolate), entry `NC(=O)c1nccnc1NC(=O)c1ccc(Cl)cc1` . Fill in?
## Result 12.5

## Task Missing value: MIC, Mtb IZAK (multidrug-resistant clinical isolate), entry `NNC(=O)c1ccncc1` . Fill in?
## Result 4

## Task Missing value: MIC, Mtb IZAK (multidrug-resistant clinical isolate), entry `CC[C@@H](CO)NCCN[C@@H](CC)CO` . Fill in?
## Result 0.39

## Task Missing value: MIC, Mtb IZAK (multidrug-resistant clinical isolate), entry `NC(=O)c1nccnc1NC(=O)c1ccc(Br)cc1` . Fill in?
## Result 12.5

----------
# Tested on: Mtb IZAK (multidrug-resistant clinical isolate)
# test-name: microbe, parasite or virus in culture
# Format: cell-based, Mycobacterium tuberculosis
# test-parameters: MDR clinical isolate
quantity-name: Mtb IZAK susceptibility class (R/S)

compound	Mtb IZAK susceptibility class (R/S)
CC[C@@H](CO)NCCN[C@@H](CC)CO	S
CO[C@H]1/C=C/O[C@@]2(C)Oc3c(C)c(O)c4c(O)c(c(/C=N/N5CCN(C)CC5)c(O)c4c3C2=O)NC(=O)/C(C)=C\C=C\[C@H](C)[C@H](O)[C@@H](C)[C@@H](O)[C@@H](C)[C@H](OC(C)=O)[C@@H]1C	R
[H]/N=C(/N)N[C@H]1[C@H](O)[C@@H](O)[C@H](O[C@@H]2O[C@@H](C)[C@](O)(C=O)[C@H]2O[C@@H]2O[C@@H](CO)[C@H](O)[C@@H](O)[C@@H]2NC)[C@@H](N/C(N)=N\[H])[C@@H]1O	R
NNC(=O)c1ccncc1	R

Please look at the following compound next.
## Task Missing value: Mtb IZAK susceptibility class (R/S), Mtb IZAK (multidrug-resistant clinical isolate), entry NC(=O)c1cnccn1 [PZA, pyrazinamide] . Fill in?
## Result R

----------
# Tested on: Mtb MATI (multidrug-resistant clinical isolate)
# test-name: microbe, parasite or virus in culture
# Assay type: cell-based, Mycobacterium tuberculosis
# test-parameters: MDR clinical isolate
quantity-name: Mtb MATI susceptibility class (R/S)

compound	study-target	data-value
NC(=O)c1cnccn1 [PZA, pyrazinamide]	Mtb MATI (multidrug-resistant clinical isolate)	R
NNC(=O)c1ccncc1	Mtb MATI (multidrug-resistant clinical isolate)	R
CC[C@@H](CO)NCCN[C@@H](CC)CO	Mtb MATI (multidrug-resistant clinical isolate)	S
CO[C@H]1/C=C/O[C@@]2(C)Oc3c(C)c(O)c4c(O)c(c(/C=N/N5CCN(C)CC5)c(O)c4c3C2=O)NC(=O)/C(C)=C\C=C\[C@H](C)[C@H](O)[C@@H](C)[C@@H](O)[C@@H](C)[C@H](OC(C)=O)[C@@H]1C	Mtb MATI (multidrug-resistant clinical isolate)	R

Please look at the following compound next.
## Task Can you look up the measured Mtb MATI susceptibility class (R/S) of `[H]/N=C(/N)N[C@H]1[C@H](O)[C@@H](O)[C@H](O[C@@H]2O[C@@H](C)[C@](O)(C=O)[C@H]2O[C@@H]2O[C@@H](CO)[C@H](O)[C@@H](O)[C@@H]2NC)[C@@H](N/C(N)=N\[H])[C@@H]1O` for me?
## Result R
